Recorded pIC50 by entry
TESTED_SYSTEM: EP4 (Homo sapiens (Human))
ASSAY_TEXT: hEP4 cAMP assay (BT549 breast cancer cells, HTRF cAMP)
Assay type: cell-based
ASSAY_SETUP: antagonistic activity, BT549 cells, PGE2 6 nM
Value format note: pIC50 is -log10 of concentration (mol/L); just state the number.

Past entries and their recorded results:
compound="CCOc1cc(-c2cc(NCCc3c(OCC)cc4ccccc4c3C)ncn2)ccc1CC(=O)O [Example 420]" assay_value=6.92
compound="CCOc1cc(-c2cc(NCCc3c(OCC)cc4ccccc4c3C)ncn2)ccc1C(=O)O [Example 418]" assay_value=6.83
compound="CCOc1cc(-c2cc(NCCc3c(OC)cc4c(c3C)OCCO4)ncn2)ccc1C(=O)O [Example 395]" assay_value=6.89
compound="CCOc1cc(-c2cc(NCCc3cc(F)c4sccc4c3)ncn2)ccc1-c1noc(=O)[nH]1 [Example 451]" assay_value=7.80
compound="CC(C)COc1cc(-c2cc(NCCc3cc(F)c4sccc4c3)ncn2)ccc1C(=O)O [Example 453]" assay_value=6.93
compound="O=C(O)c1coc2cc(-c3cc(NCCc4ccc5sccc5c4)ncn3)ccc12 [Example 467]" assay_value=6.81
compound="CCOc1cc(-c2cc(NCCc3cc(F)c4sccc4c3)ncn2)ccc1-c1nnn[nH]1 [Example 452]" assay_value=7.74

API: value(readout= pIC50, system= EP4 (Homo sapiens (Human)), query= COc1cc2c(cc1CCNc1cc(-c3ccc(C(=O)O)c(CC(C)C)c3)ncn1)OCCO2 [Example 416] )
7.08

* * *

TESTED_SYSTEM: EP2 (Homo sapiens (Human))
ASSAY_TEXT: hEP2 cAMP assay (SF295 glioblastoma cells, HTRF cAMP)
ASSAY_SETUP: antagonistic activity
MEASURED_QUANTITY: IC50 (nM)
Reply with just the number (in nM).

Past entries and their recorded results:
smiles_text=COc1cc2c(cc1CCNc1cc(-c3ccc4c(C(=O)O)coc4c3)ncn1)OCCO2 units=nM assay_value=62
smiles_text=COc1cc2occc2cc1CCNc1cc(-c2ccc(C(=O)O)c(SC)c2)ncn1 units=nM assay_value=12
smiles_text=CCOc1cc(-c2cc(NCCc3cc4ccccc4c(Cl)c3OC)ncn2)sc1C(=O)O units=nM assay_value=249
smiles_text=COc1cc2ccccc2c(F)c1CCNc1cc(-c2ccc(C(=O)O)c(SC)c2)ncn1 units=nM assay_value=52

Moving on to another compound below.
// IC50 lookup, key: "CCOc1cc(-c2cc(NCCc3cc4c(cc3OC(F)F)OCO4)ncn2)ccc1OCC(=O)O"
321

* * *

TESTED_SYSTEM: EP4 (Homo sapiens (Human), UniProt P35408)
Sequence (P35408 whole entry): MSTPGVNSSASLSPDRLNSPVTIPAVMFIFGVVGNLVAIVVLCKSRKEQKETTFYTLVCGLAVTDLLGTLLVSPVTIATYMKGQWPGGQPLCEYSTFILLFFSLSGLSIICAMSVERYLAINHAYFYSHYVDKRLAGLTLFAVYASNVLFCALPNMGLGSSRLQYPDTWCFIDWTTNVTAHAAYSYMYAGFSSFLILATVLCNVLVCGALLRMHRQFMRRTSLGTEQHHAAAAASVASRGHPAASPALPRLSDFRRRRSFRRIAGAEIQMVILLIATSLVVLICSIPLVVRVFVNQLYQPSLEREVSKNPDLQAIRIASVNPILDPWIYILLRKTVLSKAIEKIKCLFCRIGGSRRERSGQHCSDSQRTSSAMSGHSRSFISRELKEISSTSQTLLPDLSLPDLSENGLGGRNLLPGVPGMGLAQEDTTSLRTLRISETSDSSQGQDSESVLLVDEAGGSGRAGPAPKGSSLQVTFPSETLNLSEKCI
ASSAY_TEXT: hEP4 cAMP assay (BT549 breast cancer cells, HTRF cAMP)
Format: cell-based
ASSAY_SETUP: antagonistic activity, PGE2 6 nM
pIC50: −log10 of the molar value.
Where pIC50 equals or exceeds 7, the correct label is class 1; where it does not, the label is class 0.

Here are 3 compounds together with their reported answers.
smiles_text=CCc1nc(-c2cc(NCCc3ccc4ccccc4c3C)ncn2)sc1C(=O)O discrete_label="class 0"
smiles_text=COc1cc2ccccc2c(F)c1CCNc1cc(-c2ccc(C(=O)O)c(SC)c2)ncn1 discrete_label="class 1"
smiles_text=CSc1cc2c(cc1CCNc1cc(-c3ccc(C(=O)O)c(OC4CCC4)c3)ncn1)OCCO2 discrete_label="class 1"

Could you now consider this next compound?
Please tell me: is the compound "CCOc1cc(-c2cc(NCCc3ccc4ccn(CC)c4c3)ncn2)sc1C(=O)O" at or over 7 in terms of pIC50?
class 0

* * *

TESTED_SYSTEM: PTGER2 (EP2) (Homo sapiens (Human), UniProt P43116)
Sequence (P43116 whole entry): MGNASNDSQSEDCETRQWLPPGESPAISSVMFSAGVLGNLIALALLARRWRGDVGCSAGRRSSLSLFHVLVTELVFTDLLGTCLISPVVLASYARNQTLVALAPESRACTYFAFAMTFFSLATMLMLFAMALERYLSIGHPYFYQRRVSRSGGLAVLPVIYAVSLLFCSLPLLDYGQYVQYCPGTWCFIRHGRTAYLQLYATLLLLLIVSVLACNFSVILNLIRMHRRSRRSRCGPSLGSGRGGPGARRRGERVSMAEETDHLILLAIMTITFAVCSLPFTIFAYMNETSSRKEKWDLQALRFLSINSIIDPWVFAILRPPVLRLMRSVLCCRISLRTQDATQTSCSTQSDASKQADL
ASSAY_TEXT: hEP2 b-arrestin assay (PathHunter HEK 293 PTGER2 b-arrestin cells)
ASSAY_SETUP: antagonistic activity, beta-arrestin assay; read-out: hEP2 b-arr IC50
Recorded IC50 by entry
Reply with just the number (in nM).

// IC50 lookup, key: "CCCc1cc(-c2cc(NCCc3ccc4c(c3)OCCO4)ncn2)ccc1CC(=O)O"
892

* * *

TESTED_SYSTEM: PTGER2 (EP2) (Homo sapiens (Human), UniProt P43116)
ASSAY_TEXT: hEP2 b-arrestin assay (PathHunter HEK 293 PTGER2 b-arrestin cells)
ASSAY_SETUP: antagonistic activity, beta-arrestin assay; read-out: hEP2 b-arr IC50
pIC50: −log10 of the molar value.
Where pIC50 equals or exceeds 7, the correct label is T; where it does not, the label is F.

Please tell me: is the molecule "CCOc1cc(-c2cc(NCCc3cc(F)c4sccc4c3)ncn2)ccc1C(=O)NC" at or over 7 in terms of pIC50?
F

* * *

TESTED_SYSTEM: UniProtKB P35408
ASSAY_TEXT: hEP4 cAMP assay (BT549 breast cancer cells, HTRF cAMP)
Type: cell-based
ASSAY_SETUP: antagonistic activity, PGE2 6 nM
pIC50: −log10 of the molar value.
Where pIC50 equals or exceeds 7, the correct label is met; where it does not, the label is not met.

Here are 6 compounds together with their reported answers.
compound="CCOc1cc(-c2cc(NCCc3cc4ccccc4cc3Cl)ncn2)ccc1C(=O)O [Ex 279]" discrete_label="not met"
compound="CCOc1cc(-c2cc(NCCc3cc4ccoc4cc3OC)ncn2)sc1C(=O)O [Ex 12]" discrete_label=met
compound="CCOc1cc(-c2cc(NCCc3ccc4ccn(C)c4c3)ncn2)sc1C(=O)O [Ex 42]" discrete_label=met
compound="O=C(O)c1ccc(-c2cc(NCCc3ccc4c(c3)OCCO4)ncn2)cc1OC1CCC1 [Ex 244]" discrete_label="not met"
compound="COc1cc2c(cc1CCNc1cc(-c3ccc(C(=O)O)c(OC4CCC4)c3)ncn1)OCO2 [Ex 213]" discrete_label="not met"
compound="Cc1c(CCNc2cc(-c3ccc(C(=O)O)c(OC4CCC4)c3)ncn2)ccc2cccnc12 [Ex 235]" discrete_label="not met"

Please tell me: is the compound CCOc1cc(-c2cc(NCCc3ccc4c(c3)CCC4)ncn2)sc1C(=O)O [Ex 44] at or over 7 in terms of pIC50?
met

Please tell me: is the compound CCOc1cc(-c2cc(NCCc3ccc4ccccc4c3C)ncn2)ccc1-c1noc(O)n1 [Ex 220] at or over 7 in terms of pIC50?
not met

Please tell me: is the compound CCOc1cc(-c2cc(NCCc3ccc4ccccc4c3Cl)ncn2)sc1C(=O)O [Ex 90] at or over 7 in terms of pIC50?
met

Please tell me: is the compound CCOc1cc2sccc2cc1CCNc1cc(-c2ccc(OCC(=O)O)c(OCC)c2)ncn1 [Ex 53] at or over 7 in terms of pIC50?
met

Please tell me: is the compound CCOc1cc(-c2cc(NCCc3ccc4ccccc4c3N)ncn2)sc1C(=O)O [Ex 71] at or over 7 in terms of pIC50?
met

Please tell me: is the compound CCOc1cc(-c2cc(NCCc3cc4c(cc3SC)OCCO4)ncn2)sc1C(=O)O [Ex 78] at or over 7 in terms of pIC50?
met

Please tell me: is the compound CCOc1cc(-c2cc(NCCc3cc4ccsc4cc3C)ncn2)ccc1C(=O)O [Ex 254] at or over 7 in terms of pIC50?
not met

* * *

Recorded IC50 by entry
TESTED_SYSTEM: EP2 (Homo sapiens (Human), UniProt P43116)
Sequence (P43116 whole entry): as above
ASSAY_TEXT: hEP2 cAMP assay (SF295 glioblastoma cells, HTRF cAMP)
ASSAY_SETUP: antagonistic activity
Reply with just the number (in nM).

compound="COc1cc2c(cc1CCNc1cc(-c3ccc(C(=O)O)c(SC)c3)ncn1)OCO2 [Ex 277]" assay_value=14
compound="O=C(O)c1ccc(-c2cc(NCCc3ccc4c(c3)CCCO4)ncn2)cc1OC1CCC1 [Ex 266]" assay_value=537
compound="CCOc1cc(-c2cc(NCCc3cc4c(cc3OC)N(C)C(=O)CC4)ncn2)sc1C(=O)O [Ex 210]" assay_value=794
compound="O=C(O)c1ccc(-c2cc(NCCc3ccc4cccc(F)c4c3)ncn2)cc1OC1CCC1 [Ex 231]" assay_value=5650
compound="CCOc1cc2sccc2cc1CCNc1cc(-c2ccc(OCC(=O)O)c(OCC)c2)ncn1 [Ex 53]" assay_value=12

// IC50 lookup, key: CCOc1cc(-c2cc(NCCc3cc(C)c4c(c3)OCCO4)ncn2)sc1C(=O)O [Ex 95]
447

* * *

TESTED_SYSTEM: UniProt:P35408
ASSAY_TEXT: cell-based
Recorded IC50 by entry

// IC50 lookup, key: "Cc1c(CCNc2cc(-c3ccc(CC(=O)O)c(OC(F)F)c3)ncn2)ccc2c1OCCO2"
0.423 µM

// IC50 lookup, key: "CCn1cc(-c2cc(NCCc3cc(F)c4sccc4c3)ncn2)cc1C(=O)O"
0.322 µM

// IC50 lookup, key: "CC(C)Cc1cc(-c2cc(NCCc3ccc4sccc4c3F)ncn2)ccc1C(=O)O"
0.041 µM

// IC50 lookup, key: "COc1cc(-c2cc(NCCc3cc(F)c4sccc4c3)ncn2)ccc1OCCC(=O)O"
0.049 µM

// IC50 lookup, key: "CCSc1cc(-c2cc(NCCc3cc(F)c4sccc4c3)ncn2)ccc1C(=O)O"
0.053 µM
